Molecular target: PIP4K2A (full length protein, SignalChem) (Homo sapiens, UniProt P48426)
Sequence (P48426 1-406): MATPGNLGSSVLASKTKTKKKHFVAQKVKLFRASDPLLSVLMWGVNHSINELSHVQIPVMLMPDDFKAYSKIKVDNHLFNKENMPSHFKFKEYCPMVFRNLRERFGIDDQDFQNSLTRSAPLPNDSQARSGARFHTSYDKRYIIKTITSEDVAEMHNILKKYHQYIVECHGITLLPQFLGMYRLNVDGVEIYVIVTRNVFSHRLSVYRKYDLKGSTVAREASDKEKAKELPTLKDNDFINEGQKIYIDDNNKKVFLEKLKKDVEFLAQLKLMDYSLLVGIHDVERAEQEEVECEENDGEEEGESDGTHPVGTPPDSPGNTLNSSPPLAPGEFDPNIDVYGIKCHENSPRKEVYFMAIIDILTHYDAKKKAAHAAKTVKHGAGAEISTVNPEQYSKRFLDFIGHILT

>  <Compound>
CC(C)Cn1cnnc1-c1ccc(-c2cc(-c3ccnc4c3cc3n4CCN(CC4CC4)C3=O)cnc2N)cc1

>  <Target of assay>
PIP4K2A (full length protein, SignalChem) (Homo sapiens, UniProt P48426)

>  <IC50>
1000 to 2500 nM

$$$$
>  <Compound>
O=C1NCc2c(-c3cncc(-c4ccc(N5CCCC5=O)cc4)c3)ccnc21

>  <Target of assay>
PIP4K2A (full length protein, SignalChem) (Homo sapiens, UniProt P48426)

>  <IC50>
5 to 100 nM

$$$$
>  <Compound>
CC(O)c1cnc2c(c1)c(-c1cncc(-c3ccc(N4CCCC4=O)cc3)c1)cn2C (centres unmarked)

>  <Target of assay>
PIP4K2A (full length protein, SignalChem) (Homo sapiens, UniProt P48426)

>  <IC50>
5 to 100 nM

$$$$
>  <Compound>
COC(=O)c1cc2c(-c3cncc(-c4ccc(N5CCCC5=O)cc4)c3C)ccnc2[nH]1

>  <Target of assay>
PIP4K2A (full length protein, SignalChem) (Homo sapiens, UniProt P48426)

>  <IC50>
5 to 100 nM

$$$$
>  <Compound>
O=C(c1cc2c(-c3cncc(-c4ccc(N5CCCC5=O)cc4)c3)ccnc2[nH]1)N1CCCC2(CCCO2)C1 (centres unmarked)

>  <Target of assay>
PIP4K2A (full length protein, SignalChem) (Homo sapiens, UniProt P48426)

>  <IC50>
100 to 1000 nM

$$$$
>  <Compound>
CN(C)C(=O)c1ccc(-c2cc(-c3cccnc3)cnc2N)nc1

>  <Target of assay>
PIP4K2A (full length protein, SignalChem) (Homo sapiens, UniProt P48426)

>  <IC50>
< 5000 nM

$$$$
>  <Compound>
O=C1CCCN1c1ccc(-c2cncc(-c3c[nH]c4ncccc34)c2)cc1

>  <Target of assay>
PIP4K2A (full length protein, SignalChem) (Homo sapiens, UniProt P48426)

>  <IC50>
5 to 100 nM

$$$$
>  <Compound>
Cc1c(-c2ccncc2)cncc1-c1ccc(N2CCCC2=O)cc1

>  <Target of assay>
PIP4K2A (full length protein, SignalChem) (Homo sapiens, UniProt P48426)

>  <IC50>
100 to 1000 nM

$$$$
